- Test system: MDA-MB-231 cells
- ASSAY NOTES: Novelty detection of drug MoA on single-cell Chemical Painting data (LDA, Mahalanobis distance, isolation forest)
- Assay type: cell-based, human
- CONDITION SUMMARY: test compounds; dynamic range [1, −1]; below 0.1 detected as novel
PROPERTY NAME: Mean score
Output spec: single numeric token, no unit.

Solved entries:
* NC(=O)c1ccc(I)c([N+](=O)[O-])c1 | −0.9923
* CC[C@]1(O)C[C@H]2CN(CCc3c([nH]c4ccccc34)[C@@](C(=O)OC)(c3cc4c(cc3OC)N(C=O)[C@H]3[C@@](O)(C(=O)OC)[C@H](OC(C)=O)[C@]5(CC)C=CCN6CC[C@]43[C@@H]65)C2)C1 | −0.9466
* CC[C@H]1CN2CCc3cc(OC)c(OC)cc3[C@@H]2C[C@@H]1C[C@H]1NCCc2cc(OC)c(OC)cc21 | 0.6208

Per the record, `CCC(=O)CCCCC[C@@H]1NC(=O)[C@H]2CCCCN2C(=O)[C@H]([C@@H](C)CC)NC(=O)[C@H](Cc2cn(OC)c3ccccc23)NC1=O` has Mean score of −0.5289

Per the record, `CC(=O)O[C@H]1C(=O)[C@@]2(C)[C@H]([C@H](OC(=O)c3ccccc3)[C@]3(O)C[C@H](OC(=O)[C@H](O)[C@@H](NC(=O)c4ccccc4)c4ccccc4)C(C)=C1C3(C)C)[C@]1(OC(C)=O)CO[C@@H]1C[C@@H]2O` has Mean score of −0.5052

src = patent US20260088132A1
